The origin of these recorded values is ChEMBL document CHEMBL4145614.

System: HCT-116
Run description: Cytotoxicity against human HCT116 cells after 72 hrs by sulforhodamine B assay
Assay type: functional, cell-based
Measurement context: Homo sapiens, HCT-116, 72 h
Where a SMILES comes first, the peptide text is derived from it.
Readout: IC50 (µM)
Value expressed in µM; do not type the unit.

I would be grateful if you could share the reported IC50 for CC[C@H](C)[C@@H]1NC(=O)[C@@H]2CCCN2C(=O)[C@@H]2CCCN2C(=O)[C@H](C(C)C)NC(=O)[C@H](Cc2ccc(O)cc2)NC(=O)[C@@H]2CCCN2C(=O)[C@@H]2CCCN2C(=O)[C@H](CC(C)C)NC(=O)[C@H](C(C)C)NC(=O)[C@H](Cc2ccccc2)NC1=O (HELM PEPTIDE1{F.V.L.P.P.Y.V.P.P.I}$PEPTIDE1,PEPTIDE1,1:R1-10:R2$$$V2.0) .
1

I would be grateful if you could share the reported IC50 for CC[C@H](C)[C@@H]1NC(=O)[C@H](Cc2ccccc2)NC(=O)[C@@H]2CCCN2C(=O)[C@H](Cc2ccccc2)NC(=O)[C@@H]2CCCN2C(=O)[C@H](CCC(N)=O)NC(=O)[C@@H]2CCCN2C(=O)[C@H](Cc2ccccc2)NC1=O [PHAKELLI STATIN 11] (HELM PEPTIDE1{F.I.F.P.Q.P.F.P}$PEPTIDE1,PEPTIDE1,1:R1-8:R2$$$V2.0) .
1.6

###

System: MDA-MB-231
Run description: Cytotoxicity against human MDA-MB-231 cells after 72 hrs by sulforhodamine B assay
Assay type: functional, cell-based
Measurement context: Homo sapiens, MDA-MB-231, 72 h
Where a SMILES comes first, the peptide text is derived from it.
Readout: IC50 (µM)
Value expressed in µM; do not type the unit.

I would be grateful if you could share the reported IC50 for CC[C@H](C)[C@@H]1NC(=O)[C@H](Cc2ccc(O)cc2)NC(=O)[C@@H]2CCCN2C(=O)[C@@H]2CCCN2C(=O)[C@H](CC(C)C)NC(=O)[C@H](CCC(=O)O)NC(=O)[C@H](Cc2ccccc2)NC(=O)[C@H](CC[S+](C)[O-])NC(=O)[C@@H]2CCCN2C(=O)[C@@H]2CCCN2C1=O (single isomer, unassigned; epimer 2) .
0.35

I would be grateful if you could share the reported IC50 for "CC[C@H](C)[C@@H]1NC(=O)[C@H](Cc2ccccc2)NC(=O)[C@@H]2CCCN2C(=O)[C@@H]([C@H](C)O)NC(=O)[C@@H]2CCCN2C(=O)[C@H](CO)NC(=O)[C@H](C)NC1=O" .
10

I would be grateful if you could share the reported IC50 for CC[C@H](C)[C@@H]1NC(=O)[C@H](C)NC(=O)[C@H](CC[S+](C)[O-])NC(=O)[C@H](C)NC(=O)[C@H](CC(N)=O)NC(=O)[C@H](Cc2ccccc2)NC(=O)[C@@H]2CCCN2C1=O (stereo partly drawn) (HELM PEPTIDE1{A.I.P.F.N.A.[CS(=O)CC[C@H](N[*:1])C(=O)[*:2]]}$PEPTIDE1,PEPTIDE1,1:R1-7:R2$$$V2.0) .
12

I would be grateful if you could share the reported IC50 for COc1cc([C@@H]2c3cc4c(cc3[C@@H](O[C@@H]3O[C@@H]5CO[C@@H](C)O[C@H]5[C@H](O)[C@H]3O)[C@H]3COC(=O)[C@H]23)OCO4)cc(OC)c1O [ETOPOSIDE] .
4.4

I would be grateful if you could share the reported IC50 for CC[C@H](C)[C@@H]1NC(=O)[C@@H]2CCCN2C(=O)[C@H](Cc2ccc(O)cc2)NC(=O)[C@@H]2CCCN2C(=O)[C@H]([C@@H](C)CC)NC(=O)[C@@H]2CCCN2C(=O)[C@H](Cc2ccccc2)NC1=O (HELM PEPTIDE1{F.P.I.P.Y.P.I}$PEPTIDE1,PEPTIDE1,1:R1-7:R2$$$V2.0) .
9.1

I would be grateful if you could share the reported IC50 for CC[C@H](C)[C@@H]1NC(=O)[C@@H]2CCCN2C(=O)[C@@H]2CCCN2C(=O)[C@H]([C@@H](C)CC)NC(=O)[C@H](Cc2ccc(O)cc2)NC(=O)[C@@H]2CCCN2C(=O)[C@@H]2CCCN2C(=O)[C@H](CC(C)C)NC(=O)[C@H](C(C)C)NC(=O)[C@H](Cc2ccccc2)NC1=O (HELM PEPTIDE1{F.V.L.P.P.Y.I.P.P.I}$PEPTIDE1,PEPTIDE1,1:R1-10:R2$$$V2.0) .
2.5

I would be grateful if you could share the reported IC50 for CC[C@H](C)[C@@H]1NC(=O)[C@H](Cc2ccccc2)NC(=O)[C@@H]2CCCN2C(=O)[C@H](Cc2ccccc2)NC(=O)[C@@H]2CCCN2C(=O)[C@H](CCC(N)=O)NC(=O)[C@@H]2CCCN2C(=O)[C@H](Cc2ccccc2)NC1=O [PHAKELLI STATIN 11] (HELM PEPTIDE1{F.I.F.P.Q.P.F.P}$PEPTIDE1,PEPTIDE1,1:R1-8:R2$$$V2.0) .
3.2

I would be grateful if you could share the reported IC50 for CC[C@H](C)[C@@H]1NC(=O)[C@@H]2CCCN2C(=O)[C@H](Cc2ccccc2)NC(=O)[C@@H]2CCCN2C(=O)[C@H](Cc2ccc(O)cc2)NC(=O)[C@@H]2CCCN2C(=O)[C@H]([C@@H](C)CC)NC1=O [PHAKELLISTATIN 2] (HELM PEPTIDE1{F.P.I.I.P.Y.P}$PEPTIDE1,PEPTIDE1,1:R1-7:R2$$$V2.0) .
1.3

I would be grateful if you could share the reported IC50 for CC[C@H](C)[C@@H]1NC(=O)[C@H](Cc2ccccc2)NC(=O)[C@@H]2CCCN2C(=O)[C@H](Cc2ccc(O)cc2)NC(=O)[C@H](CCC(=O)O)NC(=O)[C@@H]2CCCN2C(=O)[C@@H]2CCCN2C1=O (HELM PEPTIDE1{E.Y.P.F.I.P.P}$PEPTIDE1,PEPTIDE1,1:R1-7:R2$$$V2.0) .
17

I would be grateful if you could share the reported IC50 for CC[C@H](C)[C@@H]1NC(=O)[C@@H]2CCCN2C(=O)[C@@H]2CCCN2C(=O)[C@H](C(C)C)NC(=O)[C@H](Cc2ccc(O)cc2)NC(=O)[C@@H]2CCCN2C(=O)[C@@H]2CCCN2C(=O)[C@H](CC(C)C)NC(=O)[C@H](C(C)C)NC(=O)[C@H](Cc2ccccc2)NC1=O (HELM PEPTIDE1{F.V.L.P.P.Y.V.P.P.I}$PEPTIDE1,PEPTIDE1,1:R1-10:R2$$$V2.0) .
8.6
